- System: Acinetobacter baumannii strains
- Assay Overview: Antibiotic susceptibility test (CLSI disk diffusion test method, read per CLSI 2016); note: key: ‘S’ means susceptible; ‘I’ means intermediate; ‘R’ means resistant
- Format: cell-based
- Condition: host strain YMC17/02/P523
Reported Endpoint: antibiotic susceptibility S/I/R

Reference set, count: 5
{"Entry Smiles": "C[C@@H](O)[C@H]1C(=O)N2C(C(=O)O)=C(S[C@@H]3CN[C@H](C(=O)N(C)C)C3)[C@H](C)[C@H]12", "antibiotic susceptibility S/I/R": "R"}
{"Entry Smiles": "CCN1CCN(C(=O)N[C@@H](C(=O)N[C@@H]2C(=O)N3[C@@H]2SC(C)(C)[C@@H]3C(=O)O)c2ccccc2)C(=O)C1=O", "antibiotic susceptibility S/I/R": "R"}
{"Entry Smiles": "C[C@H]1COc2c(N3CCN(C)CC3)c(F)cc3c(=O)c(C(=O)O)cn1c23", "antibiotic susceptibility S/I/R": "R"}
{"Entry Smiles": "C[C@@H](O)[C@H]1C(=O)N2C(C(=O)O)=C(SCCN=CN)C[C@H]12", "antibiotic susceptibility S/I/R": "R"}
{"Entry Smiles": "CN(C)c1ccc(O)c2c1C[C@H]1C[C@H]3[C@H](N(C)C)C(O)=C(C(N)=O)C(=O)[C@@]3(O)C(O)=C1C2=O", "antibiotic susceptibility S/I/R": "S"}

Inquiry: Value lookup for antibiotic susceptibility S/I/R; key = CN(C)c1cc(NC(=O)CNC(C)(C)C)c(O)c2c1C[C@H]1C[C@H]3[C@H](N(C)C)C(O)=C(C(N)=O)C(=O)[C@@]3(O)C(O)=C1C2=O
Reply text: S

* * *

- Test system: Acinetobacter baumannii strains
- Assay Overview: Antibiotic susceptibility test (CLSI disk diffusion test method, read per CLSI 2016); note: key: ‘S’ means susceptible; ‘I’ means intermediate; ‘R’ means resistant
- Type: cell-based
- Condition: host strain YMC14/01/R904

{"Entry Smiles": "NCC[C@H](O)C(=O)N[C@@H]1C[C@H](N)[C@@H](O[C@H]2O[C@H](CN)[C@@H](O)[C@H](O)[C@H]2O)[C@H](O)[C@H]1O[C@H]1O[C@H](CO)[C@@H](O)[C@H](N)[C@H]1O", "antibiotic susceptibility class": "R"}
{"Entry Smiles": "C[C@@H](O)[C@H]1C(=O)N2C(C(=O)O)=C(S[C@@H]3CN[C@H](C(=O)N(C)C)C3)[C@H](C)[C@H]12", "antibiotic susceptibility class": "R"}
{"Entry Smiles": "CC(C)(O/N=C(\\C(=O)N[C@@H]1C(=O)N2C(C(=O)[O-])=C(C[n+]3ccccc3)CS[C@H]12)c1csc(N)n1)C(=O)O", "antibiotic susceptibility class": "R"}

* * *

- Test system: Acinetobacter baumannii strains
- Assay Overview: Antibiotic susceptibility test (CLSI disk diffusion test method, read per CLSI 2016); note: key: ‘S’ means susceptible; ‘I’ means intermediate; ‘R’ means resistant
- Assay type: cell-based
- Condition: host strain YMC14/02/R2758
Reported Endpoint: antibiotic susceptibility class

Reference set, count: 5
{"Entry Smiles": "CC(C)(O/N=C(\\C(=O)N[C@@H]1C(=O)N2C(C(=O)[O-])=C(C[n+]3ccccc3)CS[C@H]12)c1csc(N)n1)C(=O)O", "Result": "R"}
{"Entry Smiles": "C[C@H]1COc2c(N3CCN(C)CC3)c(F)cc3c(=O)c(C(=O)O)cn1c23", "Result": "R"}
{"Entry Smiles": "CCN1CCN(C(=O)N[C@@H](C(=O)N[C@@H]2C(=O)N3[C@@H]2SC(C)(C)[C@@H]3C(=O)O)c2ccccc2)C(=O)C1=O", "Result": "R"}
{"Entry Smiles": "NCC[C@H](O)C(=O)N[C@@H]1C[C@H](N)[C@@H](O[C@H]2O[C@H](CN)[C@@H](O)[C@H](O)[C@H]2O)[C@H](O)[C@H]1O[C@H]1O[C@H](CO)[C@@H](O)[C@H](N)[C@H]1O", "Result": "R"}
{"Entry Smiles": "CN(C)c1ccc(O)c2c1C[C@H]1C[C@H]3[C@H](N(C)C)C(O)=C(C(N)=O)C(=O)[C@@]3(O)C(O)=C1C2=O", "Result": "S"}

Inquiry: # query: antibiotic susceptibility class | item C[C@@H](O)[C@H]1C(=O)N2C(C(=O)O)=C(SCCN=CN)C[C@H]12 | system: Acinetobacter baumannii strains
Reply text: R

Source of measurements: patent US20240000872A1
